biological target: HLA-A*02:01; test: IEDB peptide-MHC binding, purified MHC/direct/fluorescence; filed as Kd, often an IC50 or EC50 that approximates it; bounds were set here for any values at or beyond the usual limits of such assays; conditions: source organism: Sudan ebolavirus - Maleo (1979)

>  <RECORD SEQUENCE>
KLWTSISCA

>  <SYSTEM NAME>
HLA-A*02:01

>  <Kd (nM)>
8.2

$$$$

====

target: HLA-A*02:01; assay: IEDB peptide-MHC binding, purified MHC/competitive/radioactivity; filed as Kd, often an IC50 or EC50 that approximates it; bounds were set here for any values at or beyond the usual limits of such assays; conditions: source organism: Dengue virus 3 China/80-2/1980

>  <RECORD SEQUENCE>
FTMGVLCLA

>  <Kd>
12.3 nM

$$$$
>  <RECORD SEQUENCE>
VLLLVTHYAI

>  <Kd>
219 nM

$$$$

====

target: HLA-B*40:01; assay: IEDB peptide-MHC binding, purified MHC/direct/fluorescence; filed as Kd, often an IC50 or EC50 that approximates it; bounds were set here for any values at or beyond the usual limits of such assays; conditions: source organism: Influenza A virus (A/WSN/1933(H1N1))
pKd: −log10 of the molar value.
RECORDED ENDPOINT: pKd

>  <RECORD SEQUENCE>
AESRKLLLI

>  <RESULT VALUE>
6.80

$$$$

====

molecular target: HLA-A*31:01; assay: IEDB peptide-MHC binding, purified MHC/competitive/fluorescence; filed as Kd, often an IC50 or EC50 that approximates it; bounds were set here for any values at or beyond the usual limits of such assays; conditions: source organism: Mycobacterium tuberculosis variant bovis BCG str. Pasteur 1173P2
RECORDED ENDPOINT: Kd

>  <RECORD SEQUENCE>
KPIPHRTVL

>  <RECORDED ENDPOINT>
Kd

>  <RESULT VALUE>
≥ 20 µM

$$$$

====

target: HLA-C*04:01; assay: IEDB peptide-MHC binding, purified MHC/competitive/fluorescence; filed as Kd, often an IC50 or EC50 that approximates it; bounds were set here for any values at or beyond the usual limits of such assays; conditions: source organism: Mycosarcoma maydis
pKd: −log10 of the molar value.

>  <RECORD SEQUENCE>
IPVHPRHPY

>  <pKd>
≤ 5.30

$$$$

====

target: HLA-B*58:01; experiment: IEDB peptide-MHC binding, purified MHC/direct/fluorescence; filed as Kd, often an IC50 or EC50 that approximates it; bounds were set here for any values at or beyond the usual limits of such assays; conditions: source organism: Brucella abortus
Below: a set of entries, each annotated with reported Kd.

>  <RECORD SEQUENCE>
KLYERNTAF

>  <UNIT OF MEASURE>
nM

>  <RELATION SYMBOL>
=

>  <Kd>
284

$$$$
>  <RECORD SEQUENCE>
GRKTPLLCF

>  <UNIT OF MEASURE>
nM

>  <RELATION SYMBOL>
≥

>  <Kd>
20000

$$$$

====

target: HLA-B*46:01; assay: IEDB peptide-MHC binding, purified MHC/direct/fluorescence; filed as Kd, often an IC50 or EC50 that approximates it; bounds were set here for any values at or beyond the usual limits of such assays; conditions: source organism: Lyssavirus rabies

>  <RECORD SEQUENCE>
YLDNVGVHI

>  <Kd>
≥ 20 µM

$$$$

Measured values drawn from the Immune Epitope Database (IEDB) for this set.
